src = patent US20220251215A1

Parameter ratio of MFI, pulsed to unpulsed: see the listing below.
# system.under.test: HLA-A2 on T2 cells pulsed with ITCH (807-815) peptide (human)
# test.summary: flow cytometry, 10 ug/ml, pulsed T2 cells
assay.readout: ratio of MFI, pulsed to unpulsed (ratio)

binder	unit.of.measure	recorded.number
mAb24958N (antibody, human IgG4 S228P, kappa, V domains shown) VH: QVQLQESGPGLVKPSQTLSLTCTVSGGSIISDGYYWSWIRQHPGKGLEWIGYVDYSGNTYYNPSLKSRIIMSVDTSKNQFSLKLTSVTAADTAVYFCVREGPLRDAFEIWGQGTMVTVSS VL: DIQMTQSPSSLSASVGDRVTITCRTSQSISRYLNWYQQKPGKAPKLLIFAASSLQSGVPSRFSGSGSGADFTLTISSLQPEDFATYYCQQSYSTPPITFGQGTRLEIKR	ratio	1
mAb28042P (antibody, human IgG4 S228P, kappa, V domains shown) VH: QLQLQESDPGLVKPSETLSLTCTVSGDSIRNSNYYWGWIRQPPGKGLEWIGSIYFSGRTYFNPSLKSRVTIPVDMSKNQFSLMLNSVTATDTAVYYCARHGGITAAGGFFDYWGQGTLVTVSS VL: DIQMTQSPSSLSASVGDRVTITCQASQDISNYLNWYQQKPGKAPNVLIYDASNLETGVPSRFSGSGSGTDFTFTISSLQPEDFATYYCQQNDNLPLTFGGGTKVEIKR	ratio	0.7
mAb28128P (antibody, human IgG4 S228P, kappa, V domains shown) VH: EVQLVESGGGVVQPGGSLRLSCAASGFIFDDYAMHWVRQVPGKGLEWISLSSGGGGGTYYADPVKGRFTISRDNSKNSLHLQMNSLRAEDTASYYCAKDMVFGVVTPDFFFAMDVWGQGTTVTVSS VL: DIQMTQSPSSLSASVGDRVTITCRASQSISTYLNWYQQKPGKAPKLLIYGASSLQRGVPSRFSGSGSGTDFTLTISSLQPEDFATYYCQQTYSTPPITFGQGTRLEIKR	ratio	1
mAb28037P2 (antibody, human IgG4 S228P, kappa, V domains shown) VH: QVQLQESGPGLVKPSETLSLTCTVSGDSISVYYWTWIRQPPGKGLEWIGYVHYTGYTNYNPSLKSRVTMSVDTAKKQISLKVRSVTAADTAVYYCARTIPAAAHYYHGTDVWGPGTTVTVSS VL: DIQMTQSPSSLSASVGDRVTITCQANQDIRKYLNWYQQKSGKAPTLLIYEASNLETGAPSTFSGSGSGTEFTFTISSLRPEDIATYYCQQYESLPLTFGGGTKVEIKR	ratio	1.3
mAb24959N (antibody, human IgG4 S228P, kappa, V domains shown) VH: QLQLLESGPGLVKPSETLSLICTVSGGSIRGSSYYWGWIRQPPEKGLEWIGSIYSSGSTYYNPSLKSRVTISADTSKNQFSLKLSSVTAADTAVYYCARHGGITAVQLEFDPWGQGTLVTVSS VL: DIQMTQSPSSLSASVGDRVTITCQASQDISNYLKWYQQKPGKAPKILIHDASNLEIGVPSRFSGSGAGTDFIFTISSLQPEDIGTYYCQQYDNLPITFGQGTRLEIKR	ratio	0.9
